All figures here come from patent US20180371551A1.

target: PRMT5 (Homo sapiens)
Sequence (O14744 whole entry): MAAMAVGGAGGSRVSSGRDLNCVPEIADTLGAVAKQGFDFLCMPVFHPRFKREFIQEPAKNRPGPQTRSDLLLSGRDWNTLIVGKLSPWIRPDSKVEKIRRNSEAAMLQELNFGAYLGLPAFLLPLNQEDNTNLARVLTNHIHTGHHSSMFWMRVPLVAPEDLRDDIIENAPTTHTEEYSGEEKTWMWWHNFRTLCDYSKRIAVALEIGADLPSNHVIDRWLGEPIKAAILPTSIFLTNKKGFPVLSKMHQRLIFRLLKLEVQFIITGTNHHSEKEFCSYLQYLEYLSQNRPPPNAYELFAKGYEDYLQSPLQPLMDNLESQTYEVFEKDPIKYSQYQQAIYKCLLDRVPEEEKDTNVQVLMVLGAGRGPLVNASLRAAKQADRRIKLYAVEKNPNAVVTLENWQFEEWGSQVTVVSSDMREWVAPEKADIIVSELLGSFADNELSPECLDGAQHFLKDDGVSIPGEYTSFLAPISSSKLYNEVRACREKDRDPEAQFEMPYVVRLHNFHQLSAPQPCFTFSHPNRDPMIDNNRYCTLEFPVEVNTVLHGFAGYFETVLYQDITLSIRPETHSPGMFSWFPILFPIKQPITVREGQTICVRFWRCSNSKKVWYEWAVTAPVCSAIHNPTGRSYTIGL
Sequence (Q9BQA1 whole entry partner): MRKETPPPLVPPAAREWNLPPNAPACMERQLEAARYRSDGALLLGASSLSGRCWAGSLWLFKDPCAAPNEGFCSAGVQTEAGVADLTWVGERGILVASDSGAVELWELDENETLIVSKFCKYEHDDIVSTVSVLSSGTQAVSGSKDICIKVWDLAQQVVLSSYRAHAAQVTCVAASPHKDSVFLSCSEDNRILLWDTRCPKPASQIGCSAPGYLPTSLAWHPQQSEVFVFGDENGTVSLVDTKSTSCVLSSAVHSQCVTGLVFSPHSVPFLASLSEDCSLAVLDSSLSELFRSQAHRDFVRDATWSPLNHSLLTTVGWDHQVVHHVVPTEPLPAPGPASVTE
reported.property: pIC50
Schema: pIC50 number; meaning minus log10 of the concentration expressed in molar units.

Incoming: Hello, please tell me recorded pIC50 for this one: CSC[C@H]1O[C@@H](n2cnc3c(N)ncnc32)[C@H](O)[C@@H]1O [MTA, methylthioadenosine]
Outgoing: 5.52
